- system.name: Bromodomain adjacent to zinc finger domain protein 2B (Homo sapiens) (UniProt Q9UIF8)
- Sequence (Q9UIF8 whole entry, looked up, the tested form may be a part): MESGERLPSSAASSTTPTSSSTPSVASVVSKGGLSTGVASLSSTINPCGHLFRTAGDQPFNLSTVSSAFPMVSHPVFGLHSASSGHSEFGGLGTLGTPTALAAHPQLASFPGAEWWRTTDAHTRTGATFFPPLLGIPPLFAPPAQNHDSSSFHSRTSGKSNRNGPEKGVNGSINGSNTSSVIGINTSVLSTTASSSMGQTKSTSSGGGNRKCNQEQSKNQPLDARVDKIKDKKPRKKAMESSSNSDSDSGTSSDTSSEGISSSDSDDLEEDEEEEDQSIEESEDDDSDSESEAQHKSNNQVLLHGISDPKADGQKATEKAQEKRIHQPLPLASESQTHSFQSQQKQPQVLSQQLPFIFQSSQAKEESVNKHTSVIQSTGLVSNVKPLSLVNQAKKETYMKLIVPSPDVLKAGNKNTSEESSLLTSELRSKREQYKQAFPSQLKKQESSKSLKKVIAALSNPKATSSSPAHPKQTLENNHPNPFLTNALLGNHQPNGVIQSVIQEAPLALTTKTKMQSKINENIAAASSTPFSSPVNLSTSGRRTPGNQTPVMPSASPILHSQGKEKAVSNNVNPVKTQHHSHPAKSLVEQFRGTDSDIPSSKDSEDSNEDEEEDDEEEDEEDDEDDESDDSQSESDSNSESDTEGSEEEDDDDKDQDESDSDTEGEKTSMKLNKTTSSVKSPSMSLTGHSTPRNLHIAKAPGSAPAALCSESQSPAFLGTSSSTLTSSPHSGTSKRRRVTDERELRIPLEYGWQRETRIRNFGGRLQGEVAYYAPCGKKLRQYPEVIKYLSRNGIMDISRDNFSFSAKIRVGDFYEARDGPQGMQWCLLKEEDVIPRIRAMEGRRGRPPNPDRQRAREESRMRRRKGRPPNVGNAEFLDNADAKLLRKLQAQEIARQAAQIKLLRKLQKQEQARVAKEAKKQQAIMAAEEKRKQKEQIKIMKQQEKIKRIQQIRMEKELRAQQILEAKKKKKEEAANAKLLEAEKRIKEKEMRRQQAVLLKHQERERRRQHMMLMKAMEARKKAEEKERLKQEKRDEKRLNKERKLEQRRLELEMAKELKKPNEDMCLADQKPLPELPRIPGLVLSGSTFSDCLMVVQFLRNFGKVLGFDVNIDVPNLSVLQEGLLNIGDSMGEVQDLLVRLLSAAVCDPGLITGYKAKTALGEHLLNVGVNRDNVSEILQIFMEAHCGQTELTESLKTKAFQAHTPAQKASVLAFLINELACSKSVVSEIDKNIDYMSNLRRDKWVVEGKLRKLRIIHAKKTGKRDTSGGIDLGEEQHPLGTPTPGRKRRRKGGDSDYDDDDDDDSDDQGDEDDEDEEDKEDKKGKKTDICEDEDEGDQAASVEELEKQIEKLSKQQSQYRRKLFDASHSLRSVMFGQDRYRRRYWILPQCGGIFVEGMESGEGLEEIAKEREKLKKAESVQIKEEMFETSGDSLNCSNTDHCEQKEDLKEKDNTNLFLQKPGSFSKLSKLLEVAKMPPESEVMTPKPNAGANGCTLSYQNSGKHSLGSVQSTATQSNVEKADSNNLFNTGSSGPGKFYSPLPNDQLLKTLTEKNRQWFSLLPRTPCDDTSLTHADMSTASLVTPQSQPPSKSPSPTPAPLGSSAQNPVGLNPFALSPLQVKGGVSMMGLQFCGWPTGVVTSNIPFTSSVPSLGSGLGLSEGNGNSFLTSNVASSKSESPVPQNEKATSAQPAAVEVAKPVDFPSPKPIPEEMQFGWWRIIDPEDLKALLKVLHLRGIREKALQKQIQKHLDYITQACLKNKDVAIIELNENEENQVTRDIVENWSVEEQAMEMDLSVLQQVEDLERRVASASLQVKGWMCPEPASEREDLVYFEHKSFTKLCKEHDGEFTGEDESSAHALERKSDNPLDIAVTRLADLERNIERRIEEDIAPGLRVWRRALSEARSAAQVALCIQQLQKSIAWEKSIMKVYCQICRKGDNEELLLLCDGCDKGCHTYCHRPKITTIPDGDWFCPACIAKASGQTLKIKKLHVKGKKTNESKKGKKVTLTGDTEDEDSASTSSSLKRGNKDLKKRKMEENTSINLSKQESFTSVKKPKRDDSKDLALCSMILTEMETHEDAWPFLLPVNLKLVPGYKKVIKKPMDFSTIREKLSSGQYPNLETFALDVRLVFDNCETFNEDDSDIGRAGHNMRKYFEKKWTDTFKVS
- test.method.notes: qHTS Assay for Inhibitors of BAZ2B; also: nearly all actives have a fitted effect of over 60% in size
- measurement.conditions: AlphaScreen BAZ2B-H3K14Ac peptide displacement; series mostly up to 114 µM
Out of some 360,000 compounds screened, about 16,000 (4.4%) were called active. Inconclusive results (about 9%) are left out. Calls follow the shape of the dose curve; as a rule, active = well fitted inhibition curve with a large enough effect; inconclusive = small, poorly fitted or top-dose-only effect; inactive = no such curve, though single readings can be large or run the other way. This excerpt belongs to a sample that is enriched for actives.
Lab note: assign the record to one of t for active, f for inactive

Query: Kindly provide the recorded test outcome for the following compound: Clc1cccc(CN2COc3c(cc(Cl)c4cccnc34)C2)c1
Result: t

Query: Kindly provide the recorded test outcome for the following compound: O=c1[nH]n2c(-c3ccccc3)nc(O)c2c2ccccc12
Result: f

Query: Kindly provide the recorded test outcome for the following compound: O=c1cc(Cn2nnc(-c3ccc(Cl)cc3)n2)nc2sccn12
Result: f

Next:
Query: Kindly provide the recorded test outcome for the following compound: O=c1c2ccccc2n(Cc2cccc(Cl)c2)c(=O)n1Cc1ccccc1
Result: f

Query: Kindly provide the recorded test outcome for the following compound: O=c1c2cccnc2n(Cc2cccc(F)c2)c(=O)n1Cc1ccccc1Cl
Result: f

Query: Kindly provide the recorded test outcome for the following compound: O=c1cc(-c2ccccc2)n2c(SCc3ccccc3)nnc2[nH]1
Result: f

###

- system.name: Bromodomain adjacent to zinc finger domain protein 2B (Homo sapiens)
- test.method.notes: qHTS Assay for Inhibitors of BAZ2B; also: nearly all actives have a fitted effect of over 60% in size; also: potency is read from the fitted curve at half-maximal effect
- measurement.conditions: AlphaScreen BAZ2B-H3K14Ac peptide displacement; series mostly up to 114 µM
About 16,000 (4.4%) of roughly 360,000 compounds were called active. Another 9% or so got no clear call; they are omitted. Only a selection was taken, and actives are over-represented in it overall.
reported.endpoint: Potency

Below are worked cases with known answers.
// Cc1ccccc1Nc1nnc(SCC(=O)c2cc3ccccc3o2)s1 : Potency value = inactive

// COCC(C)NS(=O)(=O)c1ccc(N2CCCCS2(=O)=O)cc1 (stereo unspecified) : Potency value = inactive

// COc1ccc(NS(=O)(=O)c2cc3c4c(c2)CC(=O)N4CCC3)cc1Cl : Potency value = inactive

// COc1ccc(C2C(C(C)=O)=C(O)C(=O)N2CCc2c[nH]c3ccccc23)cc1 (stereo unspecified) : Potency value = 56.2 µM (active)

// Cc1ccnc(SCC(N)=O)n1 : Potency value = inactive

Next:
// CC(C)c1ccc(NC(=O)Cn2nnc(C(=O)NCCc3ccccc3)c2N)cc1 : Potency value = inactive

// Cc1cccn2c(=O)c(C(=O)NC(C)c3ccccc3)cnc12 (stereo unspecified) : Potency value = inactive

###

- system.name: Bromodomain adjacent to zinc finger domain protein 2B (Homo sapiens)
- test.method.notes: qHTS Assay for Inhibitors of BAZ2B; also: nearly all actives have a fitted effect of over 60% in size
- measurement.conditions: AlphaScreen BAZ2B-H3K14Ac peptide displacement; series mostly up to 114 µM
About 16,000 (4.4%) of roughly 360,000 compounds were called active. Another 9% or so got no clear call; they are omitted. Calls come from the whole dose curve; as a rule, active = well fitted inhibition curve with a large enough effect; inconclusive = small, poorly fitted or top-dose-only effect; inactive = no such curve, though single readings can be large or run the other way. This is one part of a sample in which actives are shown more often than they occur.
Lab note: assign the record to one of label 1 = active, label 0 = inactive

Example cases with answers are listed next.
Query: Kindly provide the recorded test outcome for the following molecule: Cc1cc2[nH]ncc2cc1NC(=S)NC(=O)c1ccccc1
Result: label 0

Query: Kindly provide the recorded test outcome for the following molecule: CC(C)(C)n1c(=O)[nH]c2c(c1=O)CCC2
Result: label 0

Query: Kindly provide the recorded test outcome for the following molecule: COc1cccc(C(=O)NC2(C(F)(F)F)C(=O)Nc3c2c(=O)[nH]c(=O)n3-c2ccc(C)cc2)c1 (centres undefined)
Result: label 0

Query: Kindly provide the recorded test outcome for the following molecule: COc1ccc(-c2cn3c(n2)sc2cc(C(=O)Nc4ccc(F)cc4)ccc23)cc1
Result: label 0

Query: Kindly provide the recorded test outcome for the following molecule: CC(C)(C)OC(=O)NCCCCCNC(=O)c1[nH]cnc1C(=O)Nc1nccs1
Result: label 1

Query: Kindly provide the recorded test outcome for the following molecule: CCCC(=O)N1CCN(c2nc3c(OC)ccc(C)c3s2)CC1
Result: label 0

Next:
Query: Kindly provide the recorded test outcome for the following molecule: COc1ccccc1C(c1nnnn1CC1CCCO1)N1CCN(c2ccccc2)CC1 (centres undefined)
Result: label 1

Query: Kindly provide the recorded test outcome for the following molecule: C#CCOCCOCCOCCNc1nc(N2CCN(C(=O)[C@H](CCC(=O)O)n3cc(C(N)CO)nn3)CC2)nc(N2CCN(C(=O)[C@H](Cc3ccc(O)cc3)n3cc(C(N)[C@H](C)CC)nn3)CC2)n1 (some centres undefined)
Result: label 1

Query: Kindly provide the recorded test outcome for the following molecule: O=C(CCc1nc(CN2CCN(S(=O)(=O)c3ccc(Br)cc3)CC2)no1)N1CCCCC1
Result: label 0
